# TARGET ENTITY: Follistatin (Homo sapiens) (UniProt P19883)
# Sequence (P19883 whole entry, looked up): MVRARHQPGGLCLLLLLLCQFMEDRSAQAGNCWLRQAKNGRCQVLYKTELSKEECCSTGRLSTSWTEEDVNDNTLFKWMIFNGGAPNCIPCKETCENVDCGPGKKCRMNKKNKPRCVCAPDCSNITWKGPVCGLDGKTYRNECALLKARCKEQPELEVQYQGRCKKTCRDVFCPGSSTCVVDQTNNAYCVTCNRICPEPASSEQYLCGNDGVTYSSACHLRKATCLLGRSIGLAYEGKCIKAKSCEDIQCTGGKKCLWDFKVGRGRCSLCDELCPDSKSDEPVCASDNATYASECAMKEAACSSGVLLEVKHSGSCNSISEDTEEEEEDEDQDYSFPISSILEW
# ASSAY SUMMARY: follistatin binders on small-molecule microarrays, primary screen, biochemical, small-molecule microarray, 635/667 nm fluorescence (AID 1132)
# EXPERIMENTAL SETUP: FST binding, 635 nm fluorescence, higher = more signal
// values below are reported composite z-score
// return just the number, without any unit appended

These solved cases illustrate the format of a correct answer.
- C[N+](C)(C)CCCCCCNC(=O)[C@H]1C[C@H]2C(=O)N3CCC[C@H]3C(=O)N2[C@H]1c1ccc(O)cc1: 1.14
- COCCOC(=O)N1C(=O)[C@@]2(c3cc(C#CCNC(N)=O)ccc31)[C@H](c1ccc(O)cc1)N1[C@H](c3ccccc3)[C@H](c3ccccc3)OC(=O)[C@H]1[C@@H]2C(=O)Nc1nc2ccccc2s1: 1.33
- Cc1ccc(S[C@]2(C(=O)NCc3ccccc3)CC(=O)N(Cc3ccccc3Cl)[C@@H]2c2ccc(CO)cc2I)cc1: 0.0508

Consider the record given below.
Would you mind telling me what composite z-score value was observed for COC(=O)C[C@H]1O[C@]2(C(=O)N(Cc3ccccc3)c3ccc(NC(C)=O)cc32)[C@@H](C)[C@@H]1[Si](C)(C)c1ccc(OC)cc1 ?
0.528
